Biological target: Glucose transporter (Leishmania mexicana) (UniProt O61059)
Assay: ST_JUDE_LEISH: Cytotoxicity at 2uM final concentration against transgenic Leishmania Mexicana promastigotes LmGT2 that are glucose transport deficient and complemented with the L. Mexicana glucose transporter 2. Activity is measured by DNA content using SYBR green in vitro
Assay type: functional
TEST READOUT: inhibition (%)
Numbers only, in %.

Answered examples (5):
compound=Cn1nc(C(F)(F)F)c(-c2ccc(F)cc2)c1NC(=O)Nc1ccc(F)cc1F test_readout=inhibition unit=% test_result=2.29
compound=Cc1nc(-c2cccc(Nc3ccnc4cc(-c5nccs5)ccc34)c2)no1 test_readout=inhibition unit=% test_result=2.74
compound=Cc1cccc2nc(-c3ccc(-c4ccc(CN5CCN(C6CCN(C)CC6)CC5)cc4)cc3)[nH]c12 test_readout=inhibition unit=% test_result=-0.53
compound=CC(=O)Nc1nc(C(=O)Nc2ccc(-c3cccc(-c4nc5cc(C(F)(F)F)ccc5[nH]4)c3)cc2)cs1 test_readout=inhibition unit=% test_result=0.81
compound=c1cn(CCCNc2ncc(-c3ccsc3)c(-c3nccs3)n2)cn1 test_readout=inhibition unit=% test_result=9.4

I would be grateful if you could provide inhibition for each of the following entries.
1. CC(C)C[C@H](NC(=O)c1cc(-c2ccc(F)cc2)no1)C(=O)O.CC(C)C[C@H](NC(=O)c1conc1-c1ccc(F)cc1)C(=O)O
2. COC(=O)[C@@H](NC(=O)[C@@H](Nc1ccc(C#N)c2ccccc12)C(C)(C)C)c1ccc(O)cc1
3. CCCC(C)C(=O)N1CCOC(COCc2cccc(C(F)(F)F)c2)(c2ccc(Cl)cc2)C1 (centres undefined)
4. COc1ccc(NC(=O)Nc2ccc(-c3ccccc3)cc2Cl)cc1N1CCN(C)CC1
5. COc1ccccc1CNC(=O)c1cc(OC)c(OC)cc1NC(=O)c1cccs1
6. COc1ccc2c(c1)Nc1ccc(Cl)cc1C2N (centres undefined)
7. Cc1cc2[nH]c(-c3ccc(C(=O)NCCCN4CCN(c5cccc(Cl)c5)CC4)cc3)nc2cc1Cl

Result string:
[2.96, 0.19, -1.52, 3.58, 4.4, 0.48, -1.01]

I would be grateful if you could provide inhibition for each of the following entries.
1. Cc1cc(N(C)C)nc(Nc2ccc(NC(=O)c3ccccc3C)cc2)n1
2. CN(C)CCCOc1ccc(CN2CC[C@H](NC(=O)c3ccc(Cl)c(Cl)c3)C2)cc1Br

Result string:
[5.05, 0.53]

---

Please go through the items and note down their inhibition.
Molecular target: Glucose transporter (Leishmania mexicana)
Test: ST_JUDE_LEISH: Cytotoxicity at 2uM final concentration against transgenic Leishmania Mexicana promastigotes LmGT2 that are glucose transport deficient and complemented with the L. Mexicana glucose transporter 2. Activity is measured by DNA content using SYBR green in vitro
Assay type: functional
Numbers only, in %.

molecule=c1cc(-c2ccc(CNC3CC3)cc2)cc(-c2nc3ccccc3[nH]2)c1 test_result=0.68

I would be grateful if you could provide inhibition for each of the following entries.
1. CCCc1ccc(S(=O)(=O)NC2CCN(C(=O)Nc3ccc(I)cc3)CC2)cc1
2. Clc1ccc(Nc2nc(-c3ccccn3)cs2)nc1
3. Cc1ccccc1-c1nc2c(CN3CCC(O)(c4ccccc4)CC3)c(O)ccc2[nH]1

Result string:
5.03
22.7
8.8

---

Biological target: Glucose transporter (Leishmania mexicana) (UniProt O61059)
Experiment: ST_JUDE_LEISH: Cytotoxicity at 2uM final concentration against transgenic Leishmania Mexicana promastigotes LmGT2 that are glucose transport deficient and complemented with the L. Mexicana glucose transporter 2. Activity is measured by DNA content using SYBR green in vitro
Format: functional
TEST READOUT: inhibition (%)
Give bare numbers, in %.

smiles_representation=CCOc1ccc(C2CCN(CCN3CCC(NC(=O)c4ccc(-c5ccc(C(F)(F)F)cc5)cc4)CC3)CC2)c(OCC2CC2)c1 unit=% test_result=2.81
smiles_representation=c1ccc2c(NCCCCCCCNc3ccnc4ccccc34)ccnc2c1 unit=% test_result=12.9
smiles_representation=NCCNc1ccc([N+](=O)[O-])cc1C(=O)Nc1cccc(C(F)(F)F)c1 unit=% test_result=3.98
smiles_representation=CCN(CC)c1nc(-c2ccccc2)cc(-c2ccccc2)c1C#N unit=% test_result=-0.21
smiles_representation=c1ccc(-c2nc(Nc3nc4ccccc4[nH]3)[nH]c2-c2ccccc2)cc1 unit=% test_result=4.43

I would be grateful if you could provide inhibition for each of the following entries.
1. COc1ccc2nccc([C@@H](O)CN3CCC(NCc4nc5cc(F)cc(F)c5[nH]4)CC3)c2c1
2. CCCCCCNc1c2ccccc2nc2ccccc12
3. Cc1cc(OCC(=O)Nc2ccc(-c3nc4ccccc4[nH]3)cc2)cc(C)c1Cl
4. Cc1ccoc1C(=O)Nc1ccc(-c2cccc(-c3nc4cccc(C)c4[nH]3)c2)cc1
5. Fc1ccc2[nH]c(-c3ccc(-c4ccc(CNCCc5ccncc5)cc4)cc3)nc2c1
6. COc1ccc(O)cc1/C=N/Nc1ccnc2cc(Cl)ccc12

Result string:
1: -0.63; 2: 3.25; 3: -0.9; 4: 1.34; 5: 2.26; 6: 9.21
